# assayed_system: human CYP8B1 (Homo sapiens, UniProt Q9UNU6)
# Sequence (Q9UNU6 26-501 limits assumed): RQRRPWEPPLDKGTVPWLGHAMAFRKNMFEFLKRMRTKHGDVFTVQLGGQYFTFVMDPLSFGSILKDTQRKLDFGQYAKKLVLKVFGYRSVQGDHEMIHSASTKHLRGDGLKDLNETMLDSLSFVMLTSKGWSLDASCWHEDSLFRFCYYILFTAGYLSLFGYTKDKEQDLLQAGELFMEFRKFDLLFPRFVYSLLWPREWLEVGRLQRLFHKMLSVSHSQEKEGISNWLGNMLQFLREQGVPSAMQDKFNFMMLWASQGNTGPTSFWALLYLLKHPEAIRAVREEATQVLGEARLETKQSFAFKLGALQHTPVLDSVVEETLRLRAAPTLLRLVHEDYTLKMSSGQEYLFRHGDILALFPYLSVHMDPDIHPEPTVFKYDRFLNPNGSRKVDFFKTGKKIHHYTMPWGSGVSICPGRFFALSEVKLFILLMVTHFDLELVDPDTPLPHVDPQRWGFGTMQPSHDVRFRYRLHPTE
# protocol_summary: Ligand-binding assay by shift of the heme Soret peak, wild type CYP8B1
# experimental_context: azoles, single site binding fit, interval in parentheses
measurement_type: KD

> print(dat)
                                   compound                            assayed.system         result
1  Clc1ccc(COC(Cn2ccnc2)c2ccc(Cl)cc2Cl)cc1 (stereo not shown)  human CYP8B1 (Homo sapiens, UniProt Q9UNU6)  submicromolar
2  Clc1ccc(C(Cn2ccnc2)OCc2ccsc2Cl)c(Cl)c1 (stereo not shown)  human CYP8B1 (Homo sapiens, UniProt Q9UNU6)  submicromolar
3  Clc1ccc(COC(Cn2ccnc2)c2ccc(Cl)cc2Cl)c(Cl)c1 (stereo not shown)  human CYP8B1 (Homo sapiens, UniProt Q9UNU6)  submicromolar

----------
# assayed_system: human CYP8B1 (Homo sapiens)
# protocol_summary: Ligand-binding assay by shift of the heme Soret peak, wild type CYP8B1
# experimental_context: spectral binding type, wild type CYP8B1
measurement_type: Shift in Soret peak

> print(dat)
                                   compound   result
1  CC(=O)N1CCN(c2ccc(OCC3COC(Cn4ccnc4)(c4ccc(Cl)cc4Cl)O3)cc2)CC1 (stereo not drawn) [Ketoconazole]  Type II
2  Clc1ccc(COC(Cn2ccnc2)c2ccc(Cl)cc2Cl)cc1 (stereo not drawn) [Econazole]  Type II

----------
# assayed_system: human CYP8B1 (Homo sapiens, UniProt Q9UNU6)
# Sequence (Q9UNU6 26-501 limits assumed): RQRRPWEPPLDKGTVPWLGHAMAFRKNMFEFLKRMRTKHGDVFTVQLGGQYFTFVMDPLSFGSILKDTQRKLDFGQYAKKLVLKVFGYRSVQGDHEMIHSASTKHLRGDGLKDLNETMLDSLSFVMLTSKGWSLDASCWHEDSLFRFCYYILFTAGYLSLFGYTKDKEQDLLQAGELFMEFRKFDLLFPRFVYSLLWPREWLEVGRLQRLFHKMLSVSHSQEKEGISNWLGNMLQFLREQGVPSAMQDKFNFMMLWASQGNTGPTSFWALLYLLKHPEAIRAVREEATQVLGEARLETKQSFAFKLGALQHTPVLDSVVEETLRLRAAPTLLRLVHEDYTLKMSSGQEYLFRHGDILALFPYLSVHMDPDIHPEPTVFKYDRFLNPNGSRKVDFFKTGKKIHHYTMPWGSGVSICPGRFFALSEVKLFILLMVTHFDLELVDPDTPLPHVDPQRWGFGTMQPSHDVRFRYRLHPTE
# protocol_summary: Ligand-binding assay by shift of the heme Soret peak, wild type CYP8B1
# experimental_context: spectral binding type, wild type CYP8B1
measurement_type: Shift in Soret peak

Solved entries:
> print(dat)
                                   compound   result
1        OC(Cn1cncn1)(Cn1cncn1)c1ccc(F)cc1F     None
2  Clc1ccc(C(Cn2ccnc2)OCc2ccsc2Cl)c(Cl)c1 (centres unmarked)  Type II
3  Clc1cccc(C(c2ccc3[nH]cnc3c2)n2ccnc2)c1 (centres unmarked)  Type II
4  Clc1ccc(COC(Cn2ccnc2)c2ccc(Cl)cc2Cl)c(Cl)c1 (centres unmarked)  Type II

response.value for Clc1ccccc1C(c1ccccc1)(c1ccccc1)n1ccnc1 (field: Shift in Soret peak) = Type II
